- Tested on: Sonic hedgehog protein (Shh)
- experiment.summary: small-molecule binders of Shh protein, primary screen, biochemical, small-molecule microarray, 635/667 nm fluorescence (AID 1151);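 also: Shh protein binding to compounds spotted on small-molecule microarray slides; score combines spot fluorescence intensity with signal-to-noise across triplicate slides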
- test.parameters: small-molecule microarray binding, 635 nm fluorescence; higher = more signal
assay.readout: composite z-score
// print number alone

Per the record, COc1ccc(O[C@H]2C=C[C@@H](c3ccccc3)O[C@@H]2COC(=O)CCC(C)=NOC[C@@H](C)[C@H](OCc2ccccc2)C(C)C)cc1 has composite z-score of -0.155

Per the record, COC(=O)[C@H](C)NC(=O)CCC1CC(OC(=O)NCc2cccc3ccccc23)CC2(CCCC(COC(=O)NCC3CCCCC3)O2)O1 (stereo partly specified) has composite z-score of 1.43

Per the record, CCCC[C@@H]1C[C@H]1[C@@H](NS(=O)(=O)c1cccc2cccnc12)c1ccc(-c2ccccc2)cc1 has composite z-score of -1.66

Per the record, O=C1O[C@@H](c2ccccc2)[C@@H](c2ccccc2)N2[C@@H](c3ccc(OCCO)cc3)[C@]3(C(=O)Nc4ccccc43)[C@@H](C(=O)N3CCN(c4ncccn4)CC3)[C@H]12 has composite z-score of 1.14

Per the record, CCCCCCc1nc(CCCc2cc3c(c(CCCCCC)n2)[Si](C(C)C)(C(C)C)O[C@H]3c2ccccc2)cc2c1[Si](C(C)C)(C(C)C)O[C@H]2c1ccccc1 has composite z-score of 0.406

Per the record, C[C@@H](c1ccccc1)N1C(=O)[C@H]2[C@H]3[C@H](O)[C@H](O)CC(=NNC(=O)OCc4ccccc4)[C@H]3CC[C@H]2C1=O has composite z-score of -0.108

----------
- experiment.summary: modulators of HCV replicon luciferase signal, primary screen, HCV replication inhibitor project, Huh7 cells, luciferase reporter (AID 1109);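 also: huh7 hepatoma cells harbouring a luciferase neomycin HCV replicon reporter; luciferase luminescence as measure of HCV replicon replication; test concentration not given here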
- test.parameters: 48 h, higher = more signal
assay.readout: z-score
// print number alone

Per the record, CCN1C(=O)[C@H]2[C@H]3[C@H](O)[C@H](O)CC(=NO[C@@H]4O[C@H](CO)[C@@H](O)[C@H](O)[C@H]4O)[C@@H]3CC[C@H]2C1=O has z-score of 0.26

Per the record, CCCCCCc1nc(CCCc2cc3c(c(CCCCCC)n2)[Si](C(C)C)(C(C)C)O[C@H]3c2ccccc2)cc2c1[Si](C(C)C)(C(C)C)O[C@H]2c1ccccc1 has z-score of -0.904

Per the record, O=C1O[C@@H](c2ccccc2)[C@@H](c2ccccc2)N2[C@@H](c3ccc(OCCO)cc3)[C@]3(C(=O)Nc4ccc(C#CCCO)cc43)[C@@H](C(=O)N3CCCCCCC3)[C@H]12 has z-score of -0.777

----------
- experiment.summary: PSAC antagonists in infected red cells, primary screen, cell-based, P. falciparum Indochina, OD700, 1 h (AID 1154)
- test.parameters: P. falciparum Indochina infected RBC osmotic lysis, higher = more signal, called active from +8 up or from −8 down
The source made the active and inactive calls.
Give measured z-score for each item. Keep answers brief.

Per the record, CCOC(=O)[C@H](Cc1ccccc1)NC(=O)CCC1CC(OC(=O)NCCc2ccc(F)cc2)CC2(CCCC(COC(=O)NCC(c3ccccc3)c3ccccc3)O2)O1 (some centres not stated) has z-score of 14.2 (active)

Per the record, COCC1=C2[C@@H](CCc3ccccc3)OB(O)C[C@@H]2n2c(=O)n(-c3ccccc3)c(=O)n2C1 has z-score of 1.88 (inactive)

Per the record, C=CC[C@@H]1C=C[C@H](ON=Cc2ccc(C(=O)N3[C@H](c4ccc(C)cc4)[C@@H](C)CC[C@H]3C(=O)OC)cc2)[C@@H](CO)O1 has z-score of 2.78 (inactive)

Per the record, C#CCCCON=C1C[C@@H](O)[C@@H](O)[C@@H]2[C@@H]3C(=O)N(CCC(=O)OCC)C(=O)[C@@H]3CC[C@@H]12 has z-score of 16.5 (active)

Per the record, COC(=O)C1=C(C)[C@@H](O)[C@@H](C)[C@H](c2c(OC)c(OC)c(C)c(OC)c2OC)O1 has z-score of 0.211 (inactive)

Per the record, CCCNC(=O)OC[C@H]1O[C@H](CCON=CC[C@@H]2C=C[C@H](OC(C)=O)[C@@H](COC(C)=O)O2)C=C[C@@H]1Oc1ccc(OC)cc1 has z-score of 1.6 (inactive)

Per the record, CCc1cccc(NC(=O)O[C@H]2[C@H](OC(=O)Nc3ccc4c(c3)OCO4)[C@@H](OC(=O)Nc3ccc4c(c3)OCO4)[C@@H](OC)O[C@@H]2CO)c1 has z-score of 7.56 (inactive)
